Just for reference, PubChem BioAssay AID624129 is where these values come from.

- assayed.target: C-X-C chemokine receptor type 6 (Homo sapiens) (UniProt O00574)
- Sequence (O00574 whole entry, looked up): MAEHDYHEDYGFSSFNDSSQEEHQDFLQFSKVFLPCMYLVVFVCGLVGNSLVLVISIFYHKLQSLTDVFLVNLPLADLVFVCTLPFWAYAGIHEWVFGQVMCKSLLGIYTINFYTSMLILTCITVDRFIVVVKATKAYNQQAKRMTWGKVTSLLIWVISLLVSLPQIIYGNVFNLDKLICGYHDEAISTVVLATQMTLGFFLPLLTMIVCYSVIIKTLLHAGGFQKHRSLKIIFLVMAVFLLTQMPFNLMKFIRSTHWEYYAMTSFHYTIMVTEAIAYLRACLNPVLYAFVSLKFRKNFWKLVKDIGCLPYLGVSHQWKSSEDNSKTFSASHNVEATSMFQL
- experiment.summary: potency against CXCR6 with APJ panel – cell-based, beta-arrestin, DiscoveRx, uHTS hits, dose response (AID 624129)
- condition.notes: CXCR6 beta-arrestin (DiscoveRx) antagonist cell assay, CXCR6, run 1, dose range 2
measurement.label: pIC50
pIC50 (log units): -log10 of the concentration in mol/L.

Exercise: Any idea what pIC50 was measured for CCCC(=O)OCCNc1cc(SCCC(=O)OC)c2nonc2c1[N+](=O)[O-] ?
Solution: 4.63

Exercise: Any idea what pIC50 was measured for O=C(COC(=O)C1CCN(S(=O)(=O)c2cccs2)CC1)c1cc2ccccc2o1 ?
Solution: 4.77

Exercise: Any idea what pIC50 was measured for CC(O)CN(CC(C)O)c1ccc2c(c1)Cc1cc([N+](=O)[O-])ccc1-2 (stereo unspecified) ?
Solution: 4.70

Exercise: Any idea what pIC50 was measured for FC(F)(F)c1cnc(NNC(=S)Nc2ccccc2)c(Cl)c1 ?
Solution: 4.92

Exercise: Any idea what pIC50 was measured for O=C(Nc1ccccc1)c1ccc(Nc2c([N+](=O)[O-])cc([N+](=O)[O-])c3ccccc23)cc1 ?
Solution: 4.19

Exercise: Any idea what pIC50 was measured for CC(=O)/C(=N\Nc1ccc(Cl)cc1Cl)Sc1cccc2cccnc12 ?
Solution: 5.57

Exercise: Any idea what pIC50 was measured for N=C1SCC(=O)N1c1ncc(Cc2ccccc2Cl)s1 ?
Solution: 4.98

Exercise: Any idea what pIC50 was measured for CC(C)c1ccc(O)c(NC(=S)NC(=O)c2cccnc2)c1 ?
Solution: 4.89

Next:
Exercise: Any idea what pIC50 was measured for O=C(C#Cc1ccccc1)c1ccco1 ?
Solution: 5.02

Exercise: Any idea what pIC50 was measured for CCOC(=O)CS(=O)(=O)c1nc(-c2ccccc2)cc(C(F)(F)F)n1 ?
Solution: 4.75

Exercise: Any idea what pIC50 was measured for COc1cc(/C=C/[N+](=O)[O-])ccc1OC(=O)c1cccnc1 ?
Solution: 4.72

---

- assayed.target: C-X-C chemokine receptor type 6 (Homo sapiens) (UniProt O00574)
- experiment.summary: potency against CXCR6 with APJ panel – cell-based, beta-arrestin, DiscoveRx, uHTS hits, dose response (AID 624129)
- condition.notes: CXCR6 beta-arrestin (DiscoveRx) antagonist cell assay, CXCR6, dose range 1, mean IC50 across replicates
measurement.label: pIC50
pIC50 (log units): -log10 of the concentration in mol/L.

Reference set (3 entries):
Exercise: Any idea what pIC50 was measured for O=C(c1nnsc1S(=O)c1ccc(Cl)cc1)N1CCOCC1 (configuration not stated) ?
Solution: 4.74

Exercise: Any idea what pIC50 was measured for COc1cc2c(cc1OC)C1(CCCC1)CNC2c1cccc([N+](=O)[O-])c1 (configuration not stated) ?
Solution: 4.85

Exercise: Any idea what pIC50 was measured for C=CCn1nc([N+](=O)[O-])nc1Sc1cccc2cccnc12 ?
Solution: 4.22

// moving on: another record for pIC50
Exercise: Any idea what pIC50 was measured for N#CC(C#N)=C1C=CC=CN1/C(=C\c1ccco1)C(=O)c1ccccc1 ?
Solution: 5.43

---

- assayed.target: UniProtKB O00574
- experiment.summary: potency against CXCR6 with APJ panel – cell-based, beta-arrestin, DiscoveRx, uHTS hits, dose response (AID 624129)
- condition.notes: CXCR6 beta-arrestin (DiscoveRx) antagonist cell assay, CXCR6, run 2, dose range 1, at 79 µM (top of the series)
measurement.label: inhibition
Your answer should be a number followed by the unit of measure.

Exercise: Any idea what inhibition was measured for O=[N+]([O-])c1cc2no[n+]([O-])c2cc1N1CCCCC1 ?
Solution: 112%

Next:
Exercise: Any idea what inhibition was measured for Fc1ccc(NC(=S)NNc2ncc(C(F)(F)F)cc2Cl)c(F)c1 ?
Solution: 109%

Exercise: Any idea what inhibition was measured for COc1cccc(-c2nnc(NC(=O)c3ccc(Cl)s3)o2)c1 ?
Solution: 67.6%

Exercise: Any idea what inhibition was measured for O=C(C#Cc1ccccc1)c1ccccc1 ?
Solution: 113%

Exercise: Any idea what inhibition was measured for N#Cc1c([N+](=O)[O-])cc([N+](=O)[O-])cc1S(=O)(=O)Cc1ccccc1 ?
Solution: 114%

---

- assayed.target: C-X-C chemokine receptor type 6 (Homo sapiens) (UniProt O00574)
- experiment.summary: potency against CXCR6 with APJ panel – cell-based, beta-arrestin, DiscoveRx, uHTS hits, dose response (AID 624129)
- condition.notes: CXCR6 beta-arrestin (DiscoveRx) antagonist cell assay, CXCR6, dose range 1, mean IC50 across replicates
Overview of recorded IC50 for various compounds
Write it as a number; the unit µM goes unstated.

Reference set (3 entries):
Exercise: Any idea what IC50 was measured for COc1ccc(CNC(=O)c2nc(S(=O)(=O)Cc3ccccc3)ncc2Cl)cc1 ?
Solution: 17.9

Exercise: Any idea what IC50 was measured for NC(=S)N/N=C/c1ncc(C(F)(F)F)cc1Cl ?
Solution: 5.44

Exercise: Any idea what IC50 was measured for O=C(Nc1nnc(SCc2ccc(F)cc2)s1)c1ccccn1 ?
Solution: 4.08

// moving on: another record for IC50
Exercise: Any idea what IC50 was measured for Cc1ccc(NCC(=O)c2ccc(C)cc2)cc1 ?
Solution: 5.44

---

- assayed.target: UniProt Q8VNN2
- Sequence (Q8VNN2 whole entry, looked up): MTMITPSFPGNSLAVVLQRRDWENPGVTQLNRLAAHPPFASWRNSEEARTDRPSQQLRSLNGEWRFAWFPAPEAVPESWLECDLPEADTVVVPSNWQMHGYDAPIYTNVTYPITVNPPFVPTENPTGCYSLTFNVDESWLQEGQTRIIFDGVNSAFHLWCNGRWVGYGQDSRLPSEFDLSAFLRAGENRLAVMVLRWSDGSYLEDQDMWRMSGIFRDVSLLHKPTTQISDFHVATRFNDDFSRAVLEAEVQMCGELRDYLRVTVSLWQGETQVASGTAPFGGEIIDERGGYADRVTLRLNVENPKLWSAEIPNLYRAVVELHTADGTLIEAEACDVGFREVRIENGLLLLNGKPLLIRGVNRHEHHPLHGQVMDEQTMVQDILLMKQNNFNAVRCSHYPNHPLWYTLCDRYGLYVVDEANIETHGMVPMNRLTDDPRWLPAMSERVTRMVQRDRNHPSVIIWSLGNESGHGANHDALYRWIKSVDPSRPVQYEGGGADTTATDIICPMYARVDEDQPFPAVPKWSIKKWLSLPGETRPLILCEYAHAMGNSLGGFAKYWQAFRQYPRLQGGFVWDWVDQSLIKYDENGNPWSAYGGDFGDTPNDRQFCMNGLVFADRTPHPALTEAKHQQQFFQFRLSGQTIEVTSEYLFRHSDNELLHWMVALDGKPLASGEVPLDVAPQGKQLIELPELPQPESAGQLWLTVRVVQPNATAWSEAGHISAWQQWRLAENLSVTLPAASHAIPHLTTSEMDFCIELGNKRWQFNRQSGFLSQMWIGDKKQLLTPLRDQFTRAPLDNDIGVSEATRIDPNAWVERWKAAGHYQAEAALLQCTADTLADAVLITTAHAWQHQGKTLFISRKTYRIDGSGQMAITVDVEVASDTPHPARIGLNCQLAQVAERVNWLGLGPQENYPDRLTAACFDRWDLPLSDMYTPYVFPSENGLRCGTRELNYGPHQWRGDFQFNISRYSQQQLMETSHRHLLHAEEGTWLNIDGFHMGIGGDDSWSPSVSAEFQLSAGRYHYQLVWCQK
- experiment.summary: potency against CXCR6 with APJ panel – cell-based, beta-arrestin, DiscoveRx, uHTS hits, dose response (AID 624129)
- condition.notes: CXCR6 beta-arrestin (DiscoveRx) antagonist cell assay, b-galactosidase, dose range 1, mean IC50 across replicates
pIC50: −log10 of the molar value.
measurement.label: pIC50

Exercise: Under UniProt Q8VNN2: pIC50 value of Oc1c(Br)cc(Br)cc1C=NCc1ccccc1 ?
Solution: 4.55

Exercise: Under UniProt Q8VNN2: pIC50 value of CC(=O)OCCCNc1cc(Sc2ccc(Cl)cc2)c2nonc2c1[N+](=O)[O-] ?
Solution: 4.40

Exercise: Under UniProt Q8VNN2: pIC50 value of Cc1nnc(Sc2cc(NCCCO)c([N+](=O)[O-])c3nonc23)s1 ?
Solution: < 4.10

Exercise: Under UniProt Q8VNN2: pIC50 value of Cc1ccc(C(C[N+](=O)[O-])Sc2ccc(N)cc2)cc1 (stereo not given) ?
Solution: 4.50

Exercise: Under UniProt Q8VNN2: pIC50 value of CC(=O)Nc1ccc(NCC(=O)c2ccccc2)cc1 ?
Solution: 4.23

Exercise: Under UniProt Q8VNN2: pIC50 value of COC(=O)[C@@H]1[C@@H](C#N)C2(c3ccccc3-c3ccccc32)N(c2ccc(Cl)cc2)N1C#N ?
Solution: < 4.10

Exercise: Under UniProt Q8VNN2: pIC50 value of CN(C)c1nc(=NCc2cccs2)ss1 ?
Solution: < 4.10

Exercise: Under UniProt Q8VNN2: pIC50 value of N#Cc1c(C#N)c(SSc2c(C#N)c(C#N)c(N)n2-c2ccccc2)n(-c2ccccc2)c1N ?
Solution: < 4.10

Exercise: Under UniProt Q8VNN2: pIC50 value of O=C(N/N=C(\c1ccccc1)c1cccnc1)c1cccc(F)c1 ?
Solution: < 4.10

Exercise: Under UniProt Q8VNN2: pIC50 value of Cc1ccc(S(=O)(=O)Nc2cccc3cccnc23)cc1 ?
Solution: < 4.10

Exercise: Under UniProt Q8VNN2: pIC50 value of Fc1ccc(Sc2nc(-c3ccccc3)nnc2C(F)(F)F)cc1 ?
Solution: < 4.10

Exercise: Under UniProt Q8VNN2: pIC50 value of Oc1c(Cl)cc(Cl)c2cccnc12 ?
Solution: < 4.10

---

- assayed.target: UniProt O00574
- experiment.summary: potency against CXCR6 with APJ panel – cell-based, beta-arrestin, DiscoveRx, uHTS hits, dose response (AID 624129)
- condition.notes: CXCR6 beta-arrestin (DiscoveRx) antagonist cell assay, CXCR6, run 2, dose range 2
Overview of recorded IC50 for various molecules
Write it as a number; the unit µM goes unstated.

Exercise: Under UniProt O00574: IC50 value of COCc1cc(=O)[nH]c(Nc2nc3ccc(C)cc3o2)n1 ?
Solution: 3.93

Exercise: Under UniProt O00574: IC50 value of Cc1ccc(NC(=O)c2nc(S(=O)(=O)Cc3ccccc3)ncc2Cl)cc1 ?
Solution: 15.5

Exercise: Under UniProt O00574: IC50 value of Cc1ccc(NC(=O)c2nc(S(=O)(=O)Cc3ccccc3C)ncc2Cl)cc1C ?
Solution: 14.3

Next:
Exercise: Under UniProt O00574: IC50 value of COC(=O)C1=C(C(=O)OC)SC2(S1)C(C(=O)OC)=C(C(=O)OC)Sc1c2ssc1=O ?
Solution: 26

Exercise: Under UniProt O00574: IC50 value of CCOc1ccc(Nc2ccc([N+](=O)[O-])c3nonc23)cc1 ?
Solution: 43.9

Exercise: Under UniProt O00574: IC50 value of CCn1c(=O)cc(NC2=NCC(C)CN2c2cccc(Cl)c2)n(C)c1=O (stereo not drawn) ?
Solution: 19

Exercise: Under UniProt O00574: IC50 value of O=C1CN(C(=O)CSc2nc3cc(Cl)ccc3c(=O)n2Cc2ccccc2)c2ccccc2N1 ?
Solution: 7.63

Exercise: Under UniProt O00574: IC50 value of Oc1cccc2ccc(/C=C/c3cccs3)nc12 ?
Solution: 3.64

Exercise: Under UniProt O00574: IC50 value of CCCC(=O)OCCNc1cc(SCc2ccco2)c2nonc2c1[N+](=O)[O-] ?
Solution: 13.1

Exercise: Under UniProt O00574: IC50 value of Cc1ccccc1NC(=S)NNc1ncc(C(F)(F)F)cc1Cl ?
Solution: 13.7

Exercise: Under UniProt O00574: IC50 value of CCc1ccc(NC(=O)c2nc(S(=O)(=O)Cc3ccccc3)ncc2Cl)cc1 ?
Solution: 13.1

Exercise: Under UniProt O00574: IC50 value of Oc1c(Br)cc(Br)cc1C=NCc1ccccc1 ?
Solution: 10.6
